Source listed as the supplement of paper PMC8728848.

Molecular target: Gal(b1-3)[Fuc(a1-4)]GlcNAc(b1-2)Man(a1-3)[Gal(b1-3)[Fuc(a1-4)]GlcNAc(b1-2)Man(a1-6)]Man(b1-4)GlcNAc(b1-4)[Fuc(a1-6)]GlcNAc
Experiment: glycan array binding signal (z-score within array); higher = stronger binding
Conditions: glycan notation: IUPAC condensed, linker removed
The full list was thinned out, with the strongest signals kept by preference.
Reported property: glycan array binding signal (z-score)
Would you mind answering with just the numeric figure?

- Binder: "Tamarinin (protein) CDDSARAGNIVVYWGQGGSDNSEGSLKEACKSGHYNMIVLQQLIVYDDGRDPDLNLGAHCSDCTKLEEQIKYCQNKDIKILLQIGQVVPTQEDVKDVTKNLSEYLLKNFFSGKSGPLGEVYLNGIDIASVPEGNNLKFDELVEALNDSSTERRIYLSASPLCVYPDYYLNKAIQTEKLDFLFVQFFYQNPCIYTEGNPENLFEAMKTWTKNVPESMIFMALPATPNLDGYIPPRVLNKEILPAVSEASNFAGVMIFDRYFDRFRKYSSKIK"
  Observed measurement: 3.52

For the next question, use this binder.
Task: So what does the record say about glycan array binding signal (z-score) for Clec12b (Mus musculus), Q149M0 (protein) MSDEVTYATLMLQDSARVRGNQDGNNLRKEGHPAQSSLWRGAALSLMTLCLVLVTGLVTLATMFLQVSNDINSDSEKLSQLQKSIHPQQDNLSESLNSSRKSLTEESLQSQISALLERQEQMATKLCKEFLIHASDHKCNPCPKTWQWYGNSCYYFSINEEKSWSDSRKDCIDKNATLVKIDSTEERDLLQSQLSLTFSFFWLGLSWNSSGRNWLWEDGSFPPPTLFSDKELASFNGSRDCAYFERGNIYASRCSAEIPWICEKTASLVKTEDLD ?
Result: 3.71
